Every entry's value here was drawn from paper PMC6123365.

# assayProcedure: Plasma pharmacokinetics after single oral dose of lotus leaf alkaloid fraction
# Assay type: in vivo, SD rats
# studyConditions: male; rat plasma, oral alkaloid fraction 50 mg/kg (NF 22.5, N-NF 10 mg/kg), mean ± SD, n = 5
measure: Tmax

                                   compound  recordedmeasurement
0  COc1cc2c3c(c1OC)-c1ccccc1CC3NCC2 (centres unmarked)               1.65 h
1   COc1cc2c3c(c1OC)-c1ccccc1C[C@H]3N(C)CC2                0.9 h

* * *

# assayProcedure: Plasma pharmacokinetics after single oral dose of lotus leaf alkaloid fraction
# Type: in vivo, SD rats
# studyConditions: male; rat plasma, oral alkaloid fraction 50 mg/kg, mean ± SD, n = 5
Measured AUC(0-t) values are reported for all entries that follow.
measure: AUC(0-t) (ng·h/mL)

                                   compound  unittext  recordedmeasurement
0  COc1cc2c3c(c1OC)-c1ccccc1CC3NCC2 (centres unmarked)   ng·h/mL                 3320
1   COc1cc2c3c(c1OC)-c1ccccc1C[C@H]3N(C)CC2   ng·h/mL                 6130

* * *

The compounds listed here are annotated with their MRT inf.
# assayProcedure: Brain pharmacokinetics (unbound, lateral ventricle) by microdialysis after i.v. dose of alkaloid fraction
# Assay type: in vivo, rats
# studyConditions: Sprague-Dawley, brain lateral ventricle microdialysate (unbound), iv; rat brain lateral ventricle, i.v. alkaloid fraction 20 mg/kg, mean ± SD, n = 6
measure: MRT inf

                                   compound  measure  recordedmeasurement
0   COc1cc2c3c(c1OC)-c1ccccc1C[C@H]3N(C)CC2  MRT inf               2.46 h
1  COc1cc2c3c(c1OC)-c1ccccc1CC3NCC2 (centres unmarked)  MRT inf               2.98 h

* * *

Below: a set of entries, each annotated with reported bioavailability.
# assayProcedure: Plasma pharmacokinetics after single oral dose of lotus leaf alkaloid fraction
# Type: in vivo, SD rats
# studyConditions: male, SD; rat, from plasma AUC0-inf after oral (50 mg/kg) and i.v. (10 mg/kg) alkaloid fraction; read-out: F (absolute oral bioavailability)
measure: bioavailability (%)

>>> df
                                   molecule  unittext  recordedmeasurement
0  COc1cc2c3c(c1OC)-c1ccccc1C[C@H]3N(C)CC2 [NF, nuciferine]         %                 58.1
1  COc1cc2c3c(c1OC)-c1ccccc1CC3NCC2 (centres unmarked) [N-NF, N-nornuciferine]         %                 79.9

* * *

# assayProcedure: Brain pharmacokinetics (unbound, lateral ventricle) by microdialysis after i.v. dose of alkaloid fraction
# Type: in vivo, rats
# studyConditions: Sprague-Dawley, brain lateral ventricle microdialysate (unbound), iv; rat brain lateral ventricle, i.v. alkaloid fraction 20 mg/kg, mean ± SD, n = 6; read-out: t1/2, λz (converted)
measure: half-life (h)

In [3]: df
Out[3]:
                                   molecule  unittext  recordedmeasurement
0  COc1cc2c3c(c1OC)-c1ccccc1CC3NCC2 (centres unmarked)         h                 1.39
1   COc1cc2c3c(c1OC)-c1ccccc1C[C@H]3N(C)CC2         h                 1.24

* * *

# assayProcedure: Plasma pharmacokinetics after single i.v. dose of lotus leaf alkaloid fraction
# Type: in vivo, SD rats
# studyConditions: male, iv; rat plasma, i.v. alkaloid fraction 10 mg/kg, mean ± SD, n = 5
Recorded clearance, one value per entry.
measure: clearance (L/h/kg)

In [3]: df
Out[3]:
                                   compound    measure  unittext  recordedmeasurement
0   COc1cc2c3c(c1OC)-c1ccccc1C[C@H]3N(C)CC2  clearance    L/h/kg                 2.15
1  COc1cc2c3c(c1OC)-c1ccccc1CC3NCC2 (centres unmarked)  clearance    L/h/kg                 2.61

* * *

# assayProcedure: Plasma pharmacokinetics after single oral dose of lotus leaf alkaloid fraction
# Type: in vivo, SD rats
# studyConditions: male; rat plasma, oral alkaloid fraction 50 mg/kg, mean ± SD, n = 5; read-out: t1/2, λz (converted)
// reported half-life for each item listed
measure: half-life

In [3]: df
Out[3]:
                                   compound    measure  recordedmeasurement
0  COc1cc2c3c(c1OC)-c1ccccc1CC3NCC2 (centres unmarked)  half-life               2.94 h
1   COc1cc2c3c(c1OC)-c1ccccc1C[C@H]3N(C)CC2  half-life               2.48 h

* * *

# assayProcedure: Brain pharmacokinetics (unbound, lateral ventricle) by microdialysis after i.v. dose of alkaloid fraction
# Assay type: in vivo, rats
# studyConditions: Sprague-Dawley, brain lateral ventricle microdialysate (unbound), iv; rat brain lateral ventricle, i.v. alkaloid fraction 20 mg/kg, mean ± SD, n = 6
measure: AUC(0-inf)

                                   compound  recordedmeasurement
0  COc1cc2c3c(c1OC)-c1ccccc1C[C@H]3N(C)CC2 [NF, nuciferine]          830 ng·h/mL
1  COc1cc2c3c(c1OC)-c1ccccc1CC3NCC2 (centres unmarked) [N-NF, N-nornuciferine]          500 ng·h/mL

* * *

The molecules listed here are annotated with their Vd.
# assayProcedure: Plasma pharmacokinetics after single i.v. dose of lotus leaf alkaloid fraction
# Assay type: in vivo, SD rats
# studyConditions: male, iv; rat plasma, i.v. alkaloid fraction 10 mg/kg, mean ± SD, n = 5; read-out: Vd, λz
measure: Vd

                                   molecule  measure  recordedmeasurement
0  COc1cc2c3c(c1OC)-c1ccccc1CC3NCC2 (centres unmarked)       Vd            15.2 L/kg
1   COc1cc2c3c(c1OC)-c1ccccc1C[C@H]3N(C)CC2       Vd            9.48 L/kg
